# Assay system: T1, human EphA2 (ephrin receptor A2), on cells (human, UniProt P29317 24-976)
# T1 construct: Used for HEK293 transfectants, A549 and other human tumor cell lines
# T1 sequence (P29317 24-976 limits assumed): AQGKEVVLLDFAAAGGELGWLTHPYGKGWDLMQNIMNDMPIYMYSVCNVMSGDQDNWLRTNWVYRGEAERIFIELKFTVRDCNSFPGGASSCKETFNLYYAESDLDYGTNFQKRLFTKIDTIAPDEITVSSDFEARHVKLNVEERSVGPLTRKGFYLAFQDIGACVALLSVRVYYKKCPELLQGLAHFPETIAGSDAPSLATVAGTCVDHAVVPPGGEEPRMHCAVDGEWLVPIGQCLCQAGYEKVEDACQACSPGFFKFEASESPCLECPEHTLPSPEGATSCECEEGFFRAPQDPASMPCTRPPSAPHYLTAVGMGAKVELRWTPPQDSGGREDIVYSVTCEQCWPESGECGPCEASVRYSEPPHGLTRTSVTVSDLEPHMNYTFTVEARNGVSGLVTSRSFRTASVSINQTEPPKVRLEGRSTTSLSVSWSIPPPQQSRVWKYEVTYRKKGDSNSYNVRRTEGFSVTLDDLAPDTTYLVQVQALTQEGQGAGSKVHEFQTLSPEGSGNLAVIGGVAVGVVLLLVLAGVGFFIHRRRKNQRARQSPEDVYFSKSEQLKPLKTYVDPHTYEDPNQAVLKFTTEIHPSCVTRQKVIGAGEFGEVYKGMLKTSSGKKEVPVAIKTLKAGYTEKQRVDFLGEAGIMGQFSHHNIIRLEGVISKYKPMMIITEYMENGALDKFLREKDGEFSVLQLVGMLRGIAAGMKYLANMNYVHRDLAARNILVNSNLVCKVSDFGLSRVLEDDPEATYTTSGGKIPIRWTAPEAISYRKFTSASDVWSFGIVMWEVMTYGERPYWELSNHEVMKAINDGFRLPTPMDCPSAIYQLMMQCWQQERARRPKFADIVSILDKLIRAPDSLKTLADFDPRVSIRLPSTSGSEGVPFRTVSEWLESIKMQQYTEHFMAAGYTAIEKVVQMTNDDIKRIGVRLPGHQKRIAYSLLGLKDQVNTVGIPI
# Measurement description: flow cytometry on A549 cells
The following binders are listed with their measured Delta (flow) values.
Lab note: record just the number, no unit beside it.

Use these answered entries as a reference point.
Binder	Quantitative readout
AB-009816 (antibody, mouse IgG2a, V domains shown) VH: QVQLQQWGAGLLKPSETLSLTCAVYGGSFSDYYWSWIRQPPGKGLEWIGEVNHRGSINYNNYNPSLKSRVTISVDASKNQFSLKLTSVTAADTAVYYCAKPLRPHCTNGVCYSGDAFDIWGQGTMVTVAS VL: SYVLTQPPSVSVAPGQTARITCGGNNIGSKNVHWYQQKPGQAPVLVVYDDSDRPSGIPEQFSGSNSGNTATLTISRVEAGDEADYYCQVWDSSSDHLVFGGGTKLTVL	670000
AB-009815 (antibody, mouse IgG2a, V domains shown) VH: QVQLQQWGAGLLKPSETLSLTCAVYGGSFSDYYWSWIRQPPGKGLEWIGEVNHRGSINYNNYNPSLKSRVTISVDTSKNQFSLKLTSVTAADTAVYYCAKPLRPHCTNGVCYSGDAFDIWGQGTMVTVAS VL: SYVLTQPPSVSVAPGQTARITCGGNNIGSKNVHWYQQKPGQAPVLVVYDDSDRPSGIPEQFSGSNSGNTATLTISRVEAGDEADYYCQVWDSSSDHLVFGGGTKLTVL	745000
AB-009814 (antibody, mouse IgG2a, V domains shown) VH: QVQLQQWGAGLLKPSETLSLTCAVYGGSFSDYYWSWIRQPPGKGLEWIGEVNHRGSINYNPSLKSRVTISVDPSKNQFSLKLTSVTAADTAVYYCAKPLRPHCTNGVCYSGDAFDIWGQGTMVTVAS VL: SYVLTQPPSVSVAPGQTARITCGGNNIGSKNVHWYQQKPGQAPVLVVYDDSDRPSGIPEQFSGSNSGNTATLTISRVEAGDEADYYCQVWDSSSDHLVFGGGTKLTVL	407000
AB-009817 (antibody, mouse IgG2a, V domains shown) VH: QVQLQQWGAGLLKPSETLSLTCAVYGGSFSDYYWSWIRQPPGKGLEWIGEVNHRGSINYNNYNPSLKSRVTISVDPSKNQFSLKLTSVTAADTAVYYCAKPLRPHCTNAVCYSGDAFDIWGQGTMVTVAS VL: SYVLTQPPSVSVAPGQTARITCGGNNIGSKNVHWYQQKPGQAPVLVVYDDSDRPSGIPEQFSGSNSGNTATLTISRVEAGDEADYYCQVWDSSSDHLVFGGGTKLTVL	0
AB-009812 (antibody, mouse IgG2a, V domains shown) VH: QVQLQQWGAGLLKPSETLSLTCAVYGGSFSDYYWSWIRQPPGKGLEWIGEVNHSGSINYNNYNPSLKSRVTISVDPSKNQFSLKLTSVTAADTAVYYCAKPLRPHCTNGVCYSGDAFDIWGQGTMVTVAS VL: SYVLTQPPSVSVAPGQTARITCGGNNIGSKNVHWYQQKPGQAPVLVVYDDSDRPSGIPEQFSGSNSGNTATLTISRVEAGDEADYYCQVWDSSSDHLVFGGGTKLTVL	568000

For the next question, use this binder.
Prompt: Return Delta (flow) for the following binder: AB-009813 (antibody, mouse IgG2a, V domains shown) VH: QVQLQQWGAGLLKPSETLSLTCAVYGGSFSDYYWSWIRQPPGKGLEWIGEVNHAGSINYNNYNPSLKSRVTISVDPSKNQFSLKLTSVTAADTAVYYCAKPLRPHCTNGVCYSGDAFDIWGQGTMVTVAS VL: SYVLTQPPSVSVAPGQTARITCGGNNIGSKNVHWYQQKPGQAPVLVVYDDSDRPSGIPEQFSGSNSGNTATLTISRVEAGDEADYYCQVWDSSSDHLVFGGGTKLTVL
Completion: 578000
